// data source = PubChem BioAssay (NCI)

# Test system: BT-549 breast
# Assay comment: NCI-60 one-dose screen, 48 h (100 = growth as untreated, 0 = no growth, -100 = all killed)
# Test conditions: 10 µM
# Method: Growth inhibition of the BT-549 human tumor cell line is measured as a screen for anti-cancer activity. Cells are grown in 96 well plates and exposed to the test compound for 48 hours. Compounds are tested at a single concentration, which is 10^-5 M for most compounds. The reported endpoint is percent growth (GI% or GIPRCNT), where numbers from 0 - 100% represent growth inhibition, and numbers from -100% - 0 represent cell death. For example, a value of 40 represents 60% growth inhibition. […]
About 83,000 compounds went through this panel and 20% of them were active in at least one assay; those are over-represented in the sample as a whole.
Listing of recorded growth by entry.
Test readout: growth (%)

[[record]]
compound = "CC[C@@H](C(=O)[C@@H](C)[C@@H](O)[C@H](C)[C@@H]1O[C@@H]([C@@H](CC)C(=O)N(CC)CC)CC[C@@H]1C)C1O[C@]2(C=CC(=O)[C@]3(CC[C@@](C)([C@H]4CC[C@](O)(CC)[C@H](C)O4)O3)O2)[C@H](C)C[C@@H]1C (some centres undefined)"
measured = 43.8

[[record]]
compound = "COc1ccc(C(c2ccc(OCCN(C)C)cc2)c2cc3ccccc3c3ccccc23)cc1 (centres undefined)"
measured = 93

[[record]]
compound = "COc1ccc(C(=O)CSc2nc(-c3cc(OC)ccc3OC)cc(-c3ccc(OC)cc3)c2C#N)cc1"
measured = 89.9

[[record]]
compound = "COc1ccc([C@H]2[C@H](C(=O)Nc3cccnc3)c3ccccc3C(=O)N2c2ccccc2)cc1"
measured = 90.5

[[record]]
compound = "COc1ccc(/C=c2\\sc3n(c2=O)C(c2cc(OC)c(OC)c(OC)c2)C=C(c2ccc(OC)c(OC)c2)N=3)cc1OC (centres undefined)"
measured = 88.5

[[record]]
compound = "COc1cc2cc(Oc3ccc(NC(=O)c4ccccc4)cc3)c(C)nc2cc1OC"
measured = 82.3

[[record]]
compound = "O=C(Cn1cc(CO)nn1)Nc1nc2ccccc2s1"
measured = 106

[[record]]
compound = "COc1ccc(Cl)cc1Nc1nc(C(F)(F)F)ccc1C(=O)N/N=C/c1cc(OC)c(OC)c(OC)c1"
measured = 15.9

[[record]]
compound = "COc1ccc(Cc2cnc(N)nc2N)cc1OC"
measured = 106

[[record]]
compound = "C[C@@H](C[C@H](CCO)c1ccccc1)c1ccc2ccccc2c1"
measured = -86.1

[[record]]
compound = "O=C(/C=C/c1cccc(B(O)O)c1)c1cccc(B(O)O)c1"
measured = -91

[[record]]
compound = "CS(=O)(=O)c1nccc(-c2c(-c3cccc(O)c3)nc3sccn23)n1"
measured = 113

[[record]]
compound = "Nc1ccc(/C=N/Nc2ccnc3c(O)cccc23)c2cccnc12"
measured = 80.2

[[record]]
compound = "COc1ccc(CCN2CCC(Nc3nc4ccccc4n3Cc3ccc(F)cc3)CC2)cc1"
measured = 31.9

[[record]]
compound = "CCC1NC(=O)c2cc(S(N)(=O)=O)c(Cl)cc2N1 (centres undefined)"
measured = 114

[[record]]
compound = "CC(=O)Nc1ccc(CC[C@H]2CCC/C=C/[C@@H]3C[C@H](O)C[C@H]3[C@H](O)/C=C/C(=O)O2)cc1"
measured = 27.5

[[record]]
compound = "Cc1c(Cl)cccc1NC(=O)CCCl"
measured = 99.7

[[record]]
compound = "Cc1cc(Cl)ccc1Nc1nc(C(F)(F)F)ccc1C(=O)N/N=C/c1c(Cl)cccc1Cl"
measured = -15

[[record]]
compound = "O=C(CCl)Oc1ccc(OC(=O)CCl)cc1"
measured = 46.9

